tested on: K562 cell line; test: CCK-8 antiproliferative assay, K562; format: cell-based; settings: Homo sapiens, K562, 72 h, read-out: IC50 (µM) K562
recorded-metric: IC50 (µM)

>  <molecule>
COc1ccc(CC2Cc3c(cc(OC)c(OC)c3OC)O2)cc1O (centres unmarked) [Compound 15c]

>  <quantitative-result>
0.1

$$$$

1 = COc1cc2c(c(OC)c1OC)CC(Cc1ccc3[nH]ccc3c1)C2 (centres unmarked) [Compound 12t]
2 = COc1ccc(CC2Cc3cc(OC)c(OC)c(OC)c3C2=O)cc1O (centres unmarked) [Compound 15d]
3 = COc1ccc(CC2Cc3cc(O)c(OC)cc3C2)cc1O (centres unmarked) [Compound 15b]
Qu. Could you please sort these 3 entries by IC50 from high to low? Put the labels in the requested order and list them out.
Ans. 2, 3, 1
(2: 0.774 µM, 3: 0.425 µM, 1: 0.176 µM)

1 = COc1ccc(CC2Cc3cc(OC)c(OC)c(OC)c3C2)cc1N (centres unmarked) [Compound 12j]
2 = COc1ccc(CC2Cc3cc(OC)c(OC)cc3C2)cc1O [Compound 15a]
Qu. // compare measured IC50, left 1 , right 2 , return larger # answer = label of selected item
Ans. 2

I = COc1cc2c(c(OC)c1OC)CC(Cc1ccc3c(c1)CCO3)C2 (centres unmarked) [Compound 12q]
II = COc1ccc(/C=C\c2cc(OC)c(OC)c(OC)c2)cc1O [CA-4, Combretastatin A-4, reference compound]
Qu. // compare measured IC50, left I , right II , return larger # answer = label of selected item
Ans. I
(I: 0.079 µM, II: 0.004 µM)

----------
# IC50 values compiled below
system: normal cell line HFL-1; experiment: CCK-8 assay, normal cell line HFL-1; assay type: cell-based; settings: Homo sapiens, HFL1, 72 h, read-out: IC50 (µM) HFL-1
Express your answer in µM, writing the number without its unit.

Example entries begin here.
>  <compound>
COc1ccc(CC2Cc3cc(OC)c(OC)cc3C2)cc1O [Compound 15a]

>  <IC50 [µM]>
5

$$$$
>  <compound>
COc1ccc(CC2Cc3cc(OC)c(OC)c(OC)c3C2)cc1N (centres unmarked) [Compound 12j]

>  <IC50 [µM]>
0.59

$$$$
>  <compound>
COc1cc2c(c(OC)c1OC)CC(Cc1ccc3[nH]ccc3c1)C2 (centres unmarked) [Compound 12t]

>  <IC50 [µM]>
0.552

$$$$
>  <compound>
COc1ccc(CC2Cc3cc(O)c(OC)cc3C2)cc1O (centres unmarked) [Compound 15b]

>  <IC50 [µM]>
11.3

$$$$
>  <compound>
COc1ccc(CC2Cc3cc(OC)c(OC)c(OC)c3C2=O)cc1O (centres unmarked) [Compound 15d]

>  <IC50 [µM]>
6.96

$$$$
>  <compound>
COc1cc2c(c(OC)c1OC)CC(Cc1ccc3c(c1)CCO3)C2 (centres unmarked) [Compound 12q]

>  <IC50 [µM]>
0.398

$$$$

Qu. Requested field: IC50. Item: COc1ccc(/C=C\c2cc(OC)c(OC)c(OC)c2)cc1O [CA-4, Combretastatin A-4, reference compound]
Ans. 0.139

Qu. Requested field: IC50. Item: COc1ccc(CC2Cc3c(cc(OC)c(OC)c3OC)O2)cc1O (centres unmarked) [Compound 15c]
Ans. 3.58

----------
tested on: Hela; assay: CCK-8 antiproliferative assay, Hela; type: cell-based; conditions: Homo sapiens, HeLa, 72 h, read-out: IC50 (µM) Hela
recorded-metric: IC50 (µM)

Example entries begin here.
>  <molecule>
COc1cc2c(c(OC)c1OC)CC(Cc1ccc3[nH]ccc3c1)C2 (stereo not shown) [Compound 12t]

>  <IC50, µM>
0.284

$$$$
>  <molecule>
COc1cc2c(c(OC)c1OC)CC(Cc1ccc3c(c1)CCO3)C2 (stereo not shown) [Compound 12q]

>  <IC50, µM>
0.183

$$$$

a = COc1ccc(/C=C\c2cc(OC)c(OC)c(OC)c2)cc1O [CA-4, Combretastatin A-4, reference compound]
b = COc1ccc(CC2Cc3cc(OC)c(OC)c(OC)c3C2=O)cc1O (stereo not shown) [Compound 15d]
Qu. // compare measured IC50, left a , right b , return larger # answer = label of selected item
Ans. b
